Listing of Ki toward Cathepsin D (Homo sapiens), each taken from a published source.
quantity-name: Ki

compound: COc1cc(Br)c(C(=O)N[C@@H](Cc2cccc(Oc3ccccc3)c2)[C@@H](O)CN(CCc2ccc(Cl)cc2Cl)C(=O)CCN2C(=O)c3ccccc3C2=O)cc1OC
reported-measurement: 7e-05 µM

compound: CC#CCOc1cnc2c(Nc3cnc(F)c([C@]4(C)CS(=O)(=O)[C@@](C)(C5CC5)C(N)=N4)c3)nccc2n1
reported-measurement: > 9.4 µM

compound: COc1cccc(CCNC(=O)C[C@H](O)[C@H](COCc2ccc(-c3ccccc3)cc2)NC(=O)c2c(F)cc(F)cc2F)c1
reported-measurement: > 5.9 µM

compound: C[C@@H](NC(=O)c1cc(NC(=O)CCC(O)(CCc2ccccc2)C(=O)N[C@H]2c3ccccc3C[C@H]2O)cc(N(C)S(C)(=O)=O)c1)c1ccccc1 (stereo in doubt; 37-(B))
reported-measurement: > 5 µM

compound: Cc1cccc(C)c1OCC(=O)NC[C@@](O)(Cc1ccccc1)C(=O)N1CSC(C)(C)[C@H]1C(=O)N[C@H]1c2ccccc2C[C@H]1O
reported-measurement: > 10 µM

compound: Cc1cccc(C)c1OCC(=O)NC[C@@](O)(CCc1ccccc1)C(=O)N1CSC(C)(C)[C@H]1C(=O)N[C@H]1c2ccccc2C[C@H]1O
reported-measurement: > 10 µM

compound: O=C(CCc1ccccc1)NNC(=O)[C@H](OC/C=C/Br)[C@H](O)[C@@H](O)[C@@H](OC/C=C/Br)C(=O)N[C@H]1c2ccccc2C[C@H]1O
reported-measurement: > 6 µM
